Source of measurements: patent US8563543B2

- study.system: purified human autoBACE-2 (Homo sapiens, UniProt Q9Y5Z0)
- Sequence (Q9Y5Z0 63-473 limits assumed): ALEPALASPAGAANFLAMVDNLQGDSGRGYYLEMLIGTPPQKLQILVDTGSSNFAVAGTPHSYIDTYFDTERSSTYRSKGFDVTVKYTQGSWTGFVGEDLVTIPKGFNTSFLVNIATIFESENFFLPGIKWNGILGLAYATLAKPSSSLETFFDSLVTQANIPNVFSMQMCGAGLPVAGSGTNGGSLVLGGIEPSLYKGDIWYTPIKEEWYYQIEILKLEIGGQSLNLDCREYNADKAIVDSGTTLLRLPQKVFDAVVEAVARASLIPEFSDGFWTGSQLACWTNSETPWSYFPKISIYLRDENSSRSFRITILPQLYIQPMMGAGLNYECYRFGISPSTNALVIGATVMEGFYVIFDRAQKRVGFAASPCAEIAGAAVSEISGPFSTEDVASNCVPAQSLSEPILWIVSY
measure.name: Ki

// CN1C(=N)N[C@](C)(c2ccc(F)cc2F)[C@@H](c2ccc(C(F)(F)F)cc2)S1(=O)=O [Example 3] : Ki value = ~0.011 µM
